assay: chemical genetic growth profiling, strain panel (AID 1159580);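 further: tested at 20 µM; growth read once vehicle control cultures reached saturation at 30 °C; 1 = growth at the plate median or of vehicle wells; lower values mean less growth of the strain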; conditions: S. cerevisiae deletion strains, growth OD, locus YEL061C, strain CIN8, hits give low values
In all, about 5,500 compounds went through this assay and about 2,000 (36%) were called active. Roughly 18% stayed inconclusive and do not appear here. The list shows a part of the results.
Please use true for normalized growth under 1 and false for everything else, ties included.

# count of solved cases: 4
>>> group("C[C@]12CCC3C(CC[C@H]4C[C@@H](O)CC[C@]34C)C1CC[C@@H]2O (stereo not given in full)")
"false"
>>> group("c1ccc(-c2csc(-c3cccnc3)n2)cc1")
"true"
>>> group("O/N=C(/CNC(c1ccccc1)(c1ccccc1)c1ccccc1)c1ccccc1")
"true"
>>> group("CC(=O)C1CCC2C3CCC4C[C@H](O)CCC4(C)C3C[C@H](O)C12C (stereo not given in full)")
"false"

Below: the item to evaluate.
Exercise: In plain terms, does Clc1ccc(Oc2ccnc3cc(Cl)ccc23)cc1 come in under 1 for normalized growth?
Solution: true

###

As shown below, each of these molecules has a reported normalized growth value.
assay: chemical genetic growth profiling, strain panel (AID 1159580); conditions: S. cerevisiae deletion strains, growth OD, locus YJR075W, strain HOC1, hits give low values
Out of some 5,500 compounds screened, about 2,000 (36%) were called active. About 18% were inconclusive and are not listed. This is one part of the list.
Answer as a number with no unit attached.

Take a look at these entries with their results.
>>> result_number("CN=C(N)NCCCC(N)C(=O)O (stereo not drawn)")
1.07
>>> result_number("Brc1ccc([C@H]2CN3CCSC3=N2)cc1")
0.983
>>> result_number("O=C(O)C(O)C(O)C(=O)O (stereo not drawn)")
0.993
>>> result_number("O=S(=O)(NCCc1ccncc1)c1cc(C(F)(F)F)cc(C(F)(F)F)c1")
1.02
>>> result_number("CCOC(=O)CNc1ccc(Cl)c(Cl)c1")
0.927
>>> result_number("c1ccc(-c2csc(-c3cccnc3)n2)cc1")
0.855

Exercise: Query: normalized growth; subject: c1ccc2c(CC3=NCCN3)cccc2c1
Solution: 1

Exercise: What about this molecule? N/C(=N/OC(=O)Nc1ccccc1)c1ccc(C2SCCS2)cc1
Solution: 0.772

Exercise: Param item: NCCCCC(=O)O
Solution: 1.03

###

experiment: chemical genetic growth profiling, strain panel (AID 1159580); conditions: S. cerevisiae deletion strains, growth OD, locus YGR092W, strain DBF2, hits give low values
About 2,000 (36%) of roughly 5,500 compounds were called active. Roughly 18% stayed inconclusive and do not appear here. The list shows a part of the results.
Under this convention, 1 denotes normalized growth strictly below 0.9 and -1 denotes normalized growth at or above 0.9.

Use the examples below as a reference point.
>>> group("COc1ccc(Nc2nc(NC(=O)Nc3ccc(Cl)cc3)n[nH]2)cc1")
1
>>> group("N#Cc1cccc(CSc2nc3ccc(C(F)(F)F)cc3[nH]2)c1")
-1

Exercise: Please state whether normalized growth is below 0.9 for Cc1noc(C)c1S(=O)(=O)Nc1csc(C(F)(F)F)c1-c1ccccc1
Solution: -1

###

assay: chemical genetic growth profiling, strain panel (AID 1159580);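 further: tested at 20 µM; growth read once vehicle control cultures reached saturation at 30 °C; 1 = growth at the plate median or of vehicle wells; lower values mean less growth of the strain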; details: S. cerevisiae deletion strains, growth OD, locus YNR052C, strain pop2, hits give low values
Hit rate of the full screen: of about 5,500 compounds, about 2,000 (36%) were called active. Another 18% or so got no clear call; they are omitted. Some of the results follow.
readout-kind: normalized growth
Reply briefly: the number, and no unit.

Exercise: Requested field: normalized growth. Item: COC(=O)[C@@H]1OC(=O)C2OC23[C@@]1(C)CCC1[C@@]2(C)CCC(=O)C(C)(C)C2C[C@@H](OC(C)=O)[C@]13C (stereo not given in full)
Solution: 0.989

Exercise: Then what about the compound CN=C(N)NCCCC(N)C(=O)O (stereo not given) ?
Solution: 1

Exercise: Field entry: COC(=O)/C(C)=C\CC12OC(C)(C)C3CC(C=C4C(=O)c5c(OC)c6c(c(CC=C(C)C)c5OC431)OC(C)(CCC=C(C)C)C=C6)C2=O (stereo not given)
Solution: 0.983

Exercise: Likewise for c1ccc2c(CC3=NCCN3)cccc2c1 ?
Solution: 1.02

Exercise: Try the compound NC(N)=NCCN1CCCCCCC1
Solution: 1.01

###

test: chemical genetic growth profiling, strain panel (AID 1159580);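 further: tested at 20 µM; growth read once vehicle control cultures reached saturation at 30 °C; 1 = growth at the plate median or of vehicle wells; lower values mean less growth of the strain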; conditions: S. cerevisiae deletion strains, growth OD, locus YNL209W, strain ssb2, hits give low values
The campaign covered roughly 5,500 compounds. About 2,000 (36%) were called active. About 18% were inconclusive and are not listed. The list shows a part of the results. Where a SMILES comes first, the peptide text is derived from it.
We begin with a simple list: items and their reported normalized growth.
API doc: respond with a numeric literal and nothing else, no unit.

>>> result_number("Clc1ccccc1CN1CCc2sccc2C1")
1.01
>>> result_number("O=C1CCCN1CC#CCN1CCCC1")
1.02
>>> result_number("CC(=O)N[C@@H](CCC(=O)O)C(=O)O")
1.03

Exercise: So what does the record say about normalized growth for CC(=O)Oc1ccc2c(c1)CCC1C2CC[C@]2(C)C(=O)CCC12 (some centres not stated) ?
Solution: 0.982

Exercise: Moving on to the next compound: CN(C)C(=O)Oc1ccc[n+](C)c1
Solution: 1

Exercise: Then Oc1c(Cl)cc(Cl)c(Cl)c1Cc1c(O)c(Cl)cc(Cl)c1Cl ?
Solution: 0.0615

Exercise: Follow-up entry: CC(=O)O[C@H]1C[C@@H](OC(C)=O)C(C)(C)C2C[C@@H](O)[C@]3(C)C(CC[C@@]4(C)[C@H](c5ccoc5)OC(=O)[C@H]5O[C@]543)[C@]21C (some centres not stated)
Solution: 0.999

Exercise: Another: COC(=O)[C@H](c1ccccc1Cl)N1CCc2sccc2C1
Solution: 0.998

Exercise: # repeat for NC(=O)NC1NC(=O)NC1=O (configuration not stated)
Solution: 1

Exercise: Same lookup for CC(=O)O[C@]1(C)CC[C@@]23CC1C(C)(C)[C@@H]2CC[C@H]3C , please.
Solution: 0.983

Exercise: Try O=C(O)C1CCCNC1 (configuration not stated) next.
Solution: 1.02

Exercise: Please answer likewise for CC(=O)O[C@H]1CC[C@@]2(C)C(C[C@@H](OC(C)=O)[C@]3(C)C2CC[C@@]2(C)[C@H](c4ccoc4)OC(=O)[C@H]4O[C@]423)C1(C)C (some centres not stated)
Solution: 1

Exercise: Also NCCCCC(=O)O ?
Solution: 1.02

Exercise: // same read-out, input: O=C(O)COc1ccc(Cl)cc1Cl
Solution: 1

Exercise: Param item: NCCCCCC(=O)O
Solution: 0.998

Exercise: Same again, this time with CC1(C)C(=O)[C@@H]2O[C@@H]2[C@@]2(C)C1C[C@@H](O)[C@]1(C)C2CC[C@@]2(C)[C@H](c3ccoc3)OC(=O)C3OC321 (some centres not stated)
Solution: 1.01

Exercise: Please do the same for CC(=O)N[C@@H](CC(=O)O)C(=O)N[C@@H](CCC(=O)O)C(=O)O (Ac-Asp-Glu-OH) as well.
Solution: 0.997

Exercise: Same read-out for Cc1oncc1C(=O)Nc1ccc(C(F)(F)F)cc1 ?
Solution: 0.99

Exercise: Request: O=C(O)CCCCCCCC(=O)O
Solution: 1

Exercise: Input CC(=O)O[C@H]1C[C@@H](OC(C)=O)C(C)(C)C2C[C@@H](OC(C)=O)[C@]3(C)C(CC[C@@]4(C)[C@H](c5ccoc5)OC(=O)[C@H]5O[C@]543)[C@]21C (some centres not stated)
Solution: 0.995

Exercise: Also C[C@]12C=CC(=O)C=C1CCC1C2[C@@H](O)C[C@@]2(C)C1CC[C@]2(O)C(=O)CO (some centres not stated) ?
Solution: 0.998

Exercise: Please give the result for CC1(C)N([O-])[N+](=O)C1(C)Br (configuration not stated) too.
Solution: 0.989

###

Listed here are compounds together with their documented normalized growth.
assay: chemical genetic growth profiling, strain panel (AID 1159580);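 further: tested at 20 µM; growth read once vehicle control cultures reached saturation at 30 °C; 1 = growth at the plate median or of vehicle wells; lower values mean less growth of the strain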; details: S. cerevisiae deletion strains, growth OD, locus YDR069C, strain doa4, hits give low values
Hit rate of the full screen: of about 5,500 compounds, about 2,000 (36%) were called active. Roughly 18% stayed inconclusive and do not appear here. The list shows a part of the results.
Lab note: jot down the number only; don't add units.

Worked examples, 4 compounds total:
>>> result_number("COP(=S)(OC)Oc1ccc(Sc2ccc(OP(=S)(OC)OC)cc2)cc1")
1.02
>>> result_number("CC12CCC3C(=CCc4cc(O)ccc43)C1CCC2=O (configuration not stated)")
0.966
>>> result_number("C[C@]12CCC3c4ccc(O)cc4CCC3C1CCC2=O (some centres not stated)")
0.993
>>> result_number("CCCn1c(=O)c2[nH]c(C3CCCC3)nc2n(CCC)c1=O")
0.976

Exercise: What measured normalized growth goes with NC1(C(=O)O)CCCC1 ?
Solution: 1.03

Exercise: Then what about the compound C[C@H]1C[C@@H](O)[C@]2(O)[C@@]13CC(=O)OC[C@@]2(C)[C@](C)(O)C(=O)C3 ?
Solution: 1.04

Exercise: Here is the next compound: COc1ccnc(CS(=O)c2nc3ccc(OC(F)F)cc3[nH]2)c1OC (configuration not stated)
Solution: 1.02

Exercise: What about this compound? NCCCNCCSP(=O)(O)O
Solution: 0.968

Exercise: Next up: Clc1ccc(C(Cn2ccnc2)OCc2ccsc2Cl)c(Cl)c1 (configuration not stated)
Solution: 0.0605

Exercise: And what about the compound O=C(O)COc1ccc(Cl)cc1Cl ?
Solution: 0.986

Exercise: Please answer likewise for COc1ccc2nc(S(=O)Cc3ncc(C)c(OC)c3C)[nH]c2c1 (configuration not stated)
Solution: 0.812

Exercise: Cool, now CN(C)CCC(c1ccccc1)c1ccccn1 (configuration not stated)
Solution: 0.994

Data provenance: PubChem BioAssay AID1159580
